These entries and their values trace back to patent US7868135B2.

# System: Staphylococcus aureus (MSSA)
# conditions: 24 h
Starred links: 1 amine or outer side, 2 acyl side, 3 side chain; linkers in the order of their positions; H or OH if unused. Positions of bridges follow the written chain, without caps; N, C: chain ends. Non-standard residues stand in square brackets, D forms with d. Residues, ends and D or L forms follow the SMILES beside them. ξ: configuration not given here. *: point of attachment. ξAbu(βξ-NH2) = CC(N[*:3])C(N[*:1])C(=O)[*:2]; Arg(Me2s) = CN=C(NC)NCCC[C@H](N)C(=O)O; Pentadecanoyl = CCCCCCCCCCCCCCC(=O)*; ξAsp(βξ-Me) = CC(C(=O)O)C(N)C(=O)O; ξD = NC(CC(=O)O)C(=O)O; ξPip = O=C(O)C1CCCCN1; ξV = CC(C)C(N)C(=O)O; ξP = O=C(O)C1CCCN1
Reported MIC by item:
Give the quantity in µg/mL, number only.

[[record]]
compound = "CCCCCCCCCCCCCCC(=O)NC(CC(=O)O)C(=O)NC1C(=O)N2CCCCC2C(=O)NC(C(C)C(=O)O)C(=O)NC(CC(=O)O)C(=O)NCC(=O)NC(CC(=O)O)C(=O)NCC(=O)NC(C(C)NC(=O)CCNC(=O)CCCCCN)C(=O)NC(C(C)C)C(=O)N2CCCC2C(=O)NC1C (stereo not drawn) [Compound 70, C15-Amphomycin-9-(β-Ala)-Ahx]"
readout_value = 2

[[record]]
compound = "CCCCCCCCCCCCCCC(=O)NC(CC(=O)O)C(=O)NC1C(=O)N2CCCCC2C(=O)NC(C(C)C(=O)O)C(=O)NC(CC(=O)O)C(=O)NCC(=O)NC(CC(=O)O)C(=O)NCC(=O)NC(C(C)NC(=O)[C@@H](N)CC(N)=O)C(=O)NC(C(C)C)C(=O)N2CCCC2C(=O)NC1C (stereo partly drawn) [Compound 38, C15-Amphomycin-9-Asn]"
readout_value = 2


Query: MIC; subject: CCCCCCCCCCCCCCC(=O)NC(CC(=O)O)C(=O)NC1C(=O)N2CCCCC2C(=O)NC(C(C)C(=O)O)C(=O)NC(CC(=O)O)C(=O)NCC(=O)NC(CC(=O)O)C(=O)NCC(=O)NC(C(C)NC(=O)[C@@H](N)CCCCN)C(=O)NC(C(C)C)C(=O)N2CCCC2C(=O)NC1C (single isomer, unassigned) [Compound 172, C15-Amphomycin-9-Lys] 16

Recorded MIC for CCCCCCCCCCCCCCC(=O)NC(CC(=O)O)C(=O)NC1C(=O)N2CCCCC2C(=O)NC(C(C)C(=O)O)C(=O)NC(CC(=O)O)C(=O)NCC(=O)NC(CC(=O)O)C(=O)NCC(=O)NC(C(C)NC(=O)[C@@H]2CCCN2)C(=O)NC(C(C)C)C(=O)N2CCCC2C(=O)NC1C (stereo partly drawn) [Compound 160, C15-Amphomycin-9-Pro] , please? 4

Fill in the blank: the reported MIC of CCCCCCCCCCCCCCC(=O)NC(CC(=O)O)C(=O)NC1C(=O)N2CCCCC2C(=O)NC(C(C)C(=O)O)C(=O)NC(CC(=O)O)C(=O)NCC(=O)NC(CC(=O)O)C(=O)NCC(=O)NC(C(C)NC(=O)CN(C)C(=O)CCCCCN)C(=O)NC(C(C)C)C(=O)N2CCCC2C(=O)NC1C (stereo not drawn) [Compound 198, C15-Amphomycin-9-Sar-Ahx] is ____. 4

Given the compound CCCCCCCCCCCCNC(=O)NC(CC(=O)O)C(=O)NC1C(=O)N2CCCCC2C(=O)NC(C(C)C(=O)O)C(=O)NC(CC(=O)O)C(=O)NCC(=O)NC(CC(=O)O)C(=O)NCC(=O)NC(C(C)NC(=O)CCN)C(=O)NC(C(C)C)C(=O)N2CCCC2C(=O)NC1C (stereo not drawn) [Compound 97] , what is its reported MIC? 0.25

Item CCCCCCCCCCCCCCC(=O)NC(CC(=O)O)C(=O)NC1C(=O)N2CCCCC2C(=O)NC(C(C)C(=O)O)C(=O)NC(CC(=O)O)C(=O)NCC(=O)NC(CC(=O)O)C(=O)NCC(=O)NC(C(C)NC(=O)[C@@H](N)CCCNC(=NC)NC)C(=O)NC(C(C)C)C(=O)N2CCCC2C(=O)NC1C (stereo partly drawn) [Compound 166, C15-Amphomycin-9-(ME)2Arg] (Pentadecanoyl-[ξD][ξAbu(βξ-NH2)][ξPip][ξAsp(βξ-Me)][ξD]G[ξD]G[ξAbu(βξ-NH2)](Arg(Me2s))[ξV][ξP]; lactam 2-C) has what recorded MIC? 32

# input compound: CCCCCCCCCCCCCCCCCC(=O)NC(CC(=O)O)C(=O)NC1C(=O)N2CCCCC2C(=O)NC(C(C)C(=O)O)C(=O)NC(CC(=O)O)C(=O)NCC(=O)NC(CC(=O)O)C(=O)NCC(=O)NC(C(C)N)C(=O)NC(C(C)C)C(=O)N2CCCC2C(=O)NC1C (stereo not drawn) [Compound 13, C18-Amphomycin] ; wanted: its MIC 2
